- System: Beta-TC6
- protocol.details: Percent efficacy for inhibition of glucose stimulated insulin release from beta TC6 cells
- Format: functional, Mus musculus
Label not fulfilled if Efficacy falls below 60%; label fulfilled in every other case.

Worked set:
[
  {
    "compound": "COc1ccc(NC(=O)c2cc([N+](=O)[O-])ccc2Oc2ccc(OC)cc2)cc1",
    "class.name": "fulfilled"
  },
  {
    "compound": "COc1ccc(Oc2ccc([N+](=O)[O-])cc2C(=O)N(C)c2ccc(Cl)cc2)cc1",
    "class.name": "not fulfilled"
  },
  {
    "compound": "COc1ccc(Oc2ccc([N+](=O)[O-])cc2C(=O)Nc2ccccc2S(N)(=O)=O)cc1",
    "class.name": "not fulfilled"
  },
  {
    "compound": "CC1=Nc2ccc(Cl)cc2S(=O)(=O)N1 [DIAZOXIDE]",
    "class.name": "not fulfilled"
  },
  {
    "compound": "COc1ccc(NC(=O)c2cc(C#N)ccc2Oc2ccc(OC)cc2)cc1",
    "class.name": "not fulfilled"
  }
]

Problem: Has CC1(NC2=NS(=O)(=O)c3sc(Cl)cc3N2)CC1 [TIFENAZOXIDE] a recorded Efficacy greater than or equal to 60%?
Result: fulfilled

Problem: Has `CC(C)NC1=NS(=O)(=O)c2cc(Cl)ccc2N1` a recorded Efficacy greater than or equal to 60%?
Result: fulfilled

Problem: Has `CCN(C(=O)c1cc([N+](=O)[O-])ccc1Oc1ccc(OC)cc1)c1ccc(Cl)cc1` a recorded Efficacy greater than or equal to 60%?
Result: not fulfilled

Problem: Has `COc1ccc(Nc2ccc([N+](=O)[O-])cc2C(=O)Nc2ccc(S(N)(=O)=O)cc2)cc1` a recorded Efficacy greater than or equal to 60%?
Result: not fulfilled

Problem: Has `COc1ccc(Oc2ccc([N+](=O)[O-])cc2C(=O)Nc2ccc(C(C)=O)cc2)cc1` a recorded Efficacy greater than or equal to 60%?
Result: fulfilled

----------
Listed next: entries and their corresponding IC50.
- System: Beta-TC6
- protocol.details: Concentration required for inhibition of glucose stimulated insulin release from beta TC6 cells
- Assay type: functional, cell-based, Mus musculus
- condition.summary: Mus musculus, Beta-TC6; read-out: IC50

Observe how each entry below is paired with its result.
[
  {
    "molecule": "COc1ccc(Oc2ccc([N+](=O)[O-])cc2C(=O)Nc2ccc(F)cc2)cc1",
    "IC50": "5.67 µM"
  },
  {
    "molecule": "COc1ccc(Oc2ccc([N+](=O)[O-])cc2C(=O)Nc2ccc(S(N)(=O)=O)cc2)cc1",
    "IC50": "0.82 µM"
  },
  {
    "molecule": "COc1ccc(NC(=O)c2cc([N+](=O)[O-])ccc2Oc2ccc(OC)cc2)cc1",
    "IC50": "1.6 µM"
  },
  {
    "molecule": "COc1ccc(Nc2ccc([N+](=O)[O-])cc2C(=O)Nc2ccc(S(N)(=O)=O)cc2)cc1",
    "IC50": "26.6 µM"
  },
  {
    "molecule": "COc1ccc(Oc2ccc([N+](=O)[O-])cc2C(=O)Nc2ccccc2S(N)(=O)=O)cc1",
    "IC50": "10.4 µM"
  }
]

Problem: Give IC50 only, for CC1(NC2=NS(=O)(=O)c3sc(Cl)cc3N2)CC1 [TIFENAZOXIDE] , using Beta-TC6 data.
Result: 0.25 µM

Problem: Give IC50 only, for `COc1ccc(Oc2ccc([N+](=O)[O-])cc2C(=O)Nc2ccc(C(C)=O)cc2)cc1` , using Beta-TC6 data.
Result: 1.12 µM

Problem: Give IC50 only, for CC1=Nc2ccc(Cl)cc2S(=O)(=O)N1 [DIAZOXIDE] , using Beta-TC6 data.
Result: 23 µM

Problem: Give IC50 only, for `COc1ccc(NC(=O)c2cc(C#N)ccc2Oc2ccc(OC)cc2)cc1` , using Beta-TC6 data.
Result: 48.5 µM
